test_system: ScPex13
experiment_notes: SPOT peptide array binding signal intensity (averaged, normalized) (arbitrary units (background-subtracted, floor 0; scale differs between SH3 domains)); higher = stronger binding of the SH3 domain to the peptide
measured_property: SPOT peptide array binding signal intensity

Exam item: Provide measured SPOT peptide array binding signal intensity value, entry: VKPRQLFPIPLNKVD
Marked response: 1.5

Further cases:
Exam item: Read the entry RRSKSLPTTPGIRSG and write its reported SPOT peptide array binding signal intensity.
Marked response: 23.2

Exam item: Please give measured SPOT peptide array binding signal intensity of the following entry: TPEIPPPLPPKIMVH
Marked response: 1210

Exam item: For DGNEEKPLLPTRPNK , write its SPOT peptide array binding signal intensity.
Marked response: 855

Exam item: Assign SPOT peptide array binding signal intensity to the following record: ATNVPVAPPPPPASL
Marked response: ≤ 0

Exam item: Give recorded SPOT peptide array binding signal intensity. RFKRHRLEFPFNESE
Marked response: ≤ 0

Exam item: Recall and state the measured SPOT peptide array binding signal intensity for TSIEIPKRSPLRFTS .
Marked response: 2
